# ASSAY_SUMMARY: in vivo
# ASSAY_CONTEXT: male, beagle, dog, in vivo, 6 mg/kg, Blood efinaconazole concentration, Time 2 hr
# Method: 24 male beagle dogs were divided into 4 groups, 6 animals per group. Voriconazole as a control drug was once administered to the animals via an oral route under fasting conditions. […] Thereafter, the pharmacokinetic (PK) profiles of the drugs were determined to calculate PK parameters of the drugs and evaluate the pharmacokinetics of the drugs. […] For intravenous administration, the doses of efinaconazole (intravenous administration group G1) were calculated based on the body weights of the animals. […]
METRIC_NAME: concentration at 2 hr (ng/mL)
Please reply with the bare figure in ng/mL and do not write the unit itself.

Q: Look up and report measured concentration at 2 hr for this entry: C=C1CCN([C@H](C)[C@](O)(Cn2cncn2)c2ccc(F)cc2F)CC1
A: 177

* * *

# ASSAY_SUMMARY: in vivo
# ASSAY_CONTEXT: male, dog, in vivo, 6 mg/kg, beagle dog, fasting, single 6 mg/kg P.O; group Mean (6 animals); read-out: Blood voriconazole concentration, Time 0.5 hr
METRIC_NAME: concentration at 0.5 h (ng/mL)
Please reply with the bare figure in ng/mL and do not write the unit itself.

Q: Look up and report measured concentration at 0.5 h for this entry: C[C@@H](c1ncncc1F)[C@](O)(Cn1cncn1)c1ccc(F)cc1F
A: 3410

* * *

# ASSAY_SUMMARY: in vivo
# ASSAY_CONTEXT: male, beagle, dog, in vivo, iv, 0.5 mg/kg, Cmax
METRIC_NAME: Cmax (ng/mL)
Please reply with the bare figure in ng/mL and do not write the unit itself.

Q: Look up and report measured Cmax for this entry: C=C1CCN([C@H](C)[C@](O)(Cn2cncn2)c2ccc(F)cc2F)CC1
A: 322
